biological target: PDGFR-β (Homo sapiens); assay: Biochemical PDGFR assay (ELISA, PDGFR-β expressing NIH 3T3 cell lysate); conditions: read-out: bio PDGF IC50
Sequence (P09619 33-1106): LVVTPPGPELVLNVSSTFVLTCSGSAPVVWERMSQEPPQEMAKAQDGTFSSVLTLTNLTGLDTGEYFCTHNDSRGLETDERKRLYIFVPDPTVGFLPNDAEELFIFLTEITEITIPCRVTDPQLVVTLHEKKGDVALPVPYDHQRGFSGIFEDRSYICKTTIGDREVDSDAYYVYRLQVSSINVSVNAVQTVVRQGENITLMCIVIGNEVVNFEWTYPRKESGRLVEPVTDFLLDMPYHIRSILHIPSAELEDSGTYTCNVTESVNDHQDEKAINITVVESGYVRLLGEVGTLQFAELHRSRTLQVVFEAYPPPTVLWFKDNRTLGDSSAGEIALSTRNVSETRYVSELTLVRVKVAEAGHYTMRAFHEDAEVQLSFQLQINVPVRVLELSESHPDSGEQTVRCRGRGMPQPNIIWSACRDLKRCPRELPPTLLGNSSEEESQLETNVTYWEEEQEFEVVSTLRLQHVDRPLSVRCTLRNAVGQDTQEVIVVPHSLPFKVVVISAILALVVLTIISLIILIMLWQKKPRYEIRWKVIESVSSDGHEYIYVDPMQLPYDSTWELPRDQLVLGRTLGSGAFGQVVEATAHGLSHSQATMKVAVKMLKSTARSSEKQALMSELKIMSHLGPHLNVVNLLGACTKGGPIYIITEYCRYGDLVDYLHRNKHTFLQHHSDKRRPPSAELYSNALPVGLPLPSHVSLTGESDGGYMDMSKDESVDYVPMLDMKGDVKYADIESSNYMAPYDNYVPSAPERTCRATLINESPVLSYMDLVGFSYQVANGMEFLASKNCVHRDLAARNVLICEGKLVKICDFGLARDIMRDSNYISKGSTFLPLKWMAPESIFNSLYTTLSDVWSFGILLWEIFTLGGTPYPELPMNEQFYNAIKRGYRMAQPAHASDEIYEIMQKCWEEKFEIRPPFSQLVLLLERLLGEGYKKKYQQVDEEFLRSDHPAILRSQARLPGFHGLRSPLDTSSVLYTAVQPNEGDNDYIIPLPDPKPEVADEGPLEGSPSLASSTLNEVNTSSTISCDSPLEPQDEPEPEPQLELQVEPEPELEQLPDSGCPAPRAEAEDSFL
pIC50: −log10 of the molar value.
Each entry below carries its recorded pIC50.

{"columns": ["COMPOUND SMILES", "TARGET OR SYSTEM", "RELATION", "pIC50"],
 "data": [
  ["CCOC(=O)c1c(C)[nH]c(/C=C2\\C(=O)Nc3ccc(Br)cc32)c1CCC(=O)O", "PDGFR-β (Homo sapiens)", "=", 7.30],
  ["CCOc1cccc(-c2ccc3c(c2)NC(=O)/C3=C\\c2[nH]cc(C)c2CCC(=O)O)c1", "PDGFR-β (Homo sapiens)", "=", 5.62],
  ["Cc1c(/C=C2\\C(=O)Nc3ccc(N)cc32)[nH]c2ccccc12", "PDGFR-β (Homo sapiens)", "=", 5.95],
  ["CNC(=O)CCc1c(/C=C2\\C(=O)Nc3ccccc32)[nH]c2c1CCCC2", "PDGFR-β (Homo sapiens)", "=", 5.76],
  ["CCOc1cccc(-c2cc(OC)c(OC)cc2/C=C2/C(=O)Nc3ccccc32)c1", "PDGFR-β (Homo sapiens)", "<", 4.00],
  ["COc1ccc(/C=C2/C(=O)Nc3cc(NC(C)=O)ccc32)cc1-c1cccs1", "PDGFR-β (Homo sapiens)", "<", 4.00],
  ["COc1ccc2c(c1)NC(=O)/C2=C\\c1[nH]c2c(c1CCC(=O)O)CCCC2", "PDGFR-β (Homo sapiens)", "=", 4.47],
  ["O=C1Nc2ccc(F)cc2/C1=C\\c1ccc2c(c1)CCO2", "PDGFR-β (Homo sapiens)", "=", 4.37]
]}

---

biological target: human flk-1 (Homo sapiens, UniProt P35968); construct: host or cells: Flk-1/NIH cells (NIH fibroblasts); experiment: Biochemical FLK-1 assay (flk-1 autophosphorylation ELISA); details: read-out: bio FLK1 IC50 (μM) % if inhibition at 100
Sequence (P35968 20-1356): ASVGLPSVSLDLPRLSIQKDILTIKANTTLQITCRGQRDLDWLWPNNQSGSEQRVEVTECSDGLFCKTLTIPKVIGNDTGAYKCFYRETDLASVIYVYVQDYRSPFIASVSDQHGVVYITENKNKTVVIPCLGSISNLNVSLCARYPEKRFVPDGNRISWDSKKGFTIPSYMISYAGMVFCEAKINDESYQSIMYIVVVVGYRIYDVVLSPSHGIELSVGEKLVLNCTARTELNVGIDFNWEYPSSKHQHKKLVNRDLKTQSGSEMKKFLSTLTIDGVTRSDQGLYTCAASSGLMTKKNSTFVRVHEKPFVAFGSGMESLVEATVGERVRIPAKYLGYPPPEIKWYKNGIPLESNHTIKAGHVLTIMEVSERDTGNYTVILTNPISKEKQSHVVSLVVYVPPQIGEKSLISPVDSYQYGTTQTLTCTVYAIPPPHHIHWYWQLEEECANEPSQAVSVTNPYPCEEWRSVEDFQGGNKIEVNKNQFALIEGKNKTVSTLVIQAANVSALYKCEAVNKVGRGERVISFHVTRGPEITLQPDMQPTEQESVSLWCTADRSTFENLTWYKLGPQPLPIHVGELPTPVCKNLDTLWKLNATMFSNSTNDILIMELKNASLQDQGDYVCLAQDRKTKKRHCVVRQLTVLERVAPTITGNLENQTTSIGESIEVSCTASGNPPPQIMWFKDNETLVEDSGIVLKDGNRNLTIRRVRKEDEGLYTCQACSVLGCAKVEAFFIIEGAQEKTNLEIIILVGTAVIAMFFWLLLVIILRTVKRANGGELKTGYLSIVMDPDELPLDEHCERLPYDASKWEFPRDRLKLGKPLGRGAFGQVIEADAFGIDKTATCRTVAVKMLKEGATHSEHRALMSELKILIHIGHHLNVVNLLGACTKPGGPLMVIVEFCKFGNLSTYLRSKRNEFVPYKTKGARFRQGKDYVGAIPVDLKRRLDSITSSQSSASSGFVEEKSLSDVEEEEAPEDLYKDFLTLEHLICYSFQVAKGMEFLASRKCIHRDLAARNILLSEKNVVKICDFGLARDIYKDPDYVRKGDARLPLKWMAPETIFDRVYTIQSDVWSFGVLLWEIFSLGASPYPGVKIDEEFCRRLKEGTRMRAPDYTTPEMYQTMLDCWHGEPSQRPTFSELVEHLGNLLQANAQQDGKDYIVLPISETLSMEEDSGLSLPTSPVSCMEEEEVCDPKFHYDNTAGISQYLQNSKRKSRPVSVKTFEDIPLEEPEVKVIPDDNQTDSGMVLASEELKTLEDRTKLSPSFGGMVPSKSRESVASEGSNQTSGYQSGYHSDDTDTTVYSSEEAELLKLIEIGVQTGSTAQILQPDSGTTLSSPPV
Each entry below carries its recorded IC50.
REPORTED PROPERTY: IC50 (µM)

{"columns": ["COMPOUND SMILES", "RELATION", "OBSERVED RESULT"],
 "data": [
  ["COc1ccc2c(c1)/C(=C/c1[nH]cc(C)c1CCC(=O)O)C(=O)N2", "<", 0.78],
  ["Cc1c[nH]c(/C=C2\\C(=O)Nc3ccc(Br)cc32)c1CCC(=O)O", "=", 0.35],
  ["COc1ccc(-c2ccc3c(c2)NC(=O)/C3=C\\c2[nH]c3c(c2CCC(=O)O)CCCC3)cc1", "=", 0.52],
  ["COc1cccc(-c2ccc3c(c2)NC(=O)/C3=C\\c2[nH]cc(C)c2CCC(=O)O)c1", "=", 28.2],
  ["Cc1c[nH]c(/C=C2\\C(=O)Nc3ccc(Cl)cc32)c1CCC(=O)O", "=", 2.91],
  ["O=C(O)CCc1c(/C=C2\\C(=O)Nc3ncccc32)[nH]c2c1CCCC2", "=", 0.14],
  ["O=C1Nc2ccc(N=Cc3cc4ccccc4[nH]3)cc2C1=Cc1cc2ccccc2[nH]1", "=", 20.4],
  ["COc1c(C(C)C)cc(/C=C2/C(=O)Nc3ccc(Cl)cc32)cc1C(C)C", ">", 50]
]}

Source listed as patent US6855730B2.
